target.entity: 5'-Lipoxygenase (Homo sapiens, UniProt P09917)
Construct: human leukocyte tissue culture cells; endogenous in cells; host or cells: Human peripheral leukocytes, RPMI-1788
Sequence (P09917 whole entry): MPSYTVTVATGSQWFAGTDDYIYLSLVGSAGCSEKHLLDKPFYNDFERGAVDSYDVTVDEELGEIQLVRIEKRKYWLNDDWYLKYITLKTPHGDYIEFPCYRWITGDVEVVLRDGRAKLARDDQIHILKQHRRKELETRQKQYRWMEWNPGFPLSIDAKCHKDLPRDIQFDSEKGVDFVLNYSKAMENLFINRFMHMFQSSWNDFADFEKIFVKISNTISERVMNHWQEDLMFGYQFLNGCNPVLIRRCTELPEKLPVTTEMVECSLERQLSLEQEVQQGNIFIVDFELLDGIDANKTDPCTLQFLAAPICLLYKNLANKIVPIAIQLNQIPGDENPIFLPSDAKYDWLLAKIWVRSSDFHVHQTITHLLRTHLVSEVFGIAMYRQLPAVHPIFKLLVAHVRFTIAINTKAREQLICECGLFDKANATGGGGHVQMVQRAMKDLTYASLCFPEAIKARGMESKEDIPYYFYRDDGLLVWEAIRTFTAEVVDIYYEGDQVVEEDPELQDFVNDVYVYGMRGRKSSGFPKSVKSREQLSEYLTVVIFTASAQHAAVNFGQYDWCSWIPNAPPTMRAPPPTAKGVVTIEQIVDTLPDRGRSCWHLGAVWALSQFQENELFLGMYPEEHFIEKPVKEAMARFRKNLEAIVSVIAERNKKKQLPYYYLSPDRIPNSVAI
test.details: Human leukocyte 5'-lipoxygenase
Type: cell-based
measurement.setup: Table XIX; read-out: Leukocyte 5' lipoxygenase IC50
pIC50: −log10 of the molar value.
measured.parameter: pIC50

N#C[BH2-][n+]1c(N)ccn([C@H]2C[C@H](O)[C@@H](CO)O2)c1=O    4.89

###

target.entity: Cathepsin (Rattus norvegicus)
Construct: azocasein assay pH 5.0
Sequence (P24268 65-407): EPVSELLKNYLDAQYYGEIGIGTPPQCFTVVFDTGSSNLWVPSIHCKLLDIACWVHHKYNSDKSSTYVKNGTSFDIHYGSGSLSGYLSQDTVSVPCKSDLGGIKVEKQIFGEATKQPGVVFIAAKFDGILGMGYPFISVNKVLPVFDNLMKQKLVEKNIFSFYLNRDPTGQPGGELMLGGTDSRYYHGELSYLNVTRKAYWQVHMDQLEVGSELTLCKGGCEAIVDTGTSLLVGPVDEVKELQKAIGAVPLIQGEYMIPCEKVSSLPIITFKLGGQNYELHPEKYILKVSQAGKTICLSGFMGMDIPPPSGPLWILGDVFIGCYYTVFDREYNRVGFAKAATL
test.details: Rat PMNs cathepsin activity
Assay type: cell-based
measurement.setup: pH 5; 5 × 10^-6 M, N=6; read-out: Rat PMNs Cathep.
measured.parameter: activity at 5 µM (%)

CCOC(=O)[BH2-][N+](C)(C)C    16
C[N+](C)(C)[BH2-]C(=O)O    14
COc1ccc2c(c1)c(CC(=O)O)c(C)n2C(=O)c1ccc(Cl)cc1 [Indomethacin, reference compound]    100
C[N+](C)(C)[BH2-]C#N    4
[BH3-][NH+]1CCOCC1    93
